KM: recorded values
B1: glmS ribozyme (parent)
chain: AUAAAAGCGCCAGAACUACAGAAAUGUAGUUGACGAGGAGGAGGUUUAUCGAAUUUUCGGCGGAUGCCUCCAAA

Variants of: B1
Assay: KM; higher = weaker cofactor use; RNA array
Details: with glucosamine-6-phosphate

AUAAAAGCGCCAGAACUACAGAAAUGUAUUUGACGAGGAGGAGGUUUAUCGAUUUUUCGGCGGAUGCCUCCAAA [G29U A53U] :: 1600 µM
AUAAAAGCGCCAAAACUACAGAAAUGUAGUUGACGAGGAAGAGGUUUAUCGAAUUUUCGGCGGAUGCCUCCAAA [G13A G40A] :: 6100 µM
AUAAAAGCGCCAGAACUACAGAAAUGUAGUUGACGAGGAAGAGGUUUAUCGAAUUGUCGGCGGAUGCCUCCAAA [G40A U56G] :: 2840 µM
AUAAAAGCGCCAGAACUACAGAAAUGUAGUUGACGAGGAGGAGGUUUAUCGAAUUGUAGGCGGAUGCCUCCAAA [U56G C58A] :: 6930 µM
AUAAAAGCGCCAGAACUACAGAAAUGUAGUUGACGAGGAGGAGGUUUAUCGAAUUUUCGGCAUAUGCCUCCAAA [G62A G63U] :: 359 µM

Input line: For AUAAAAGCGCCAGAACUACAGAAAUGUAGUUGACGAGGAGGAUGUUUAUCGAAUUUUCGGCGGAGGCCUCCAAA [G43U U65G] , what is its reported KM?
Output line: 2380 µM

Input line: For AUAAAAGCGCCAGAACUACAGAAAUGUAGUAGACGAGGAGGAGGUUUAUCGGAUUUUCGGCGGAUGCCUCCAAA [U31A A52G] , what is its reported KM?
Output line: 4620 µM

Input line: For AUAAAAGCGCCAGAACUACAGAAAUGUAGUUGACGAGGAGGAGGUUUCUCGAAUUUUCGGCGGAUGCCUCUAAA [A48C C71U] , what is its reported KM?
Output line: 5220 µM

Input line: For AUAAAAGCGCCAGAUCUACAGAAAUGUAGUUGACGAGGUGGAGGUUUAUCGAAUUUUCGGCGGAUGCCUCCAAA [A15U A39U] , what is its reported KM?
Output line: 2280 µM

Input line: For AUAAAAGCGCCAGAACUACAGAAAUGUAGUUGACGAGGAGGAGGUUUAUCGAAUUUUCGGCGGGUGCCUUCAAA [A64G C70U] , what is its reported KM?
Output line: 2630 µM

Input line: For AUAAAAGCGCCAGAACUACAGAAAUGUAGUUGACGUGGAGGAGGUUUAUCGAUUUUUCGGCGGAUGCCUCCAAA [A36U A53U] , what is its reported KM?
Output line: 148 µM

Input line: For AUAAAAGCGCCAGAACUACAGAAAUGUAGUUCACGAGGAGGAGGUUUAUCGAAUCUUCGGCGGAUGCCUCCAAA [G32C U55C] , what is its reported KM?
Output line: 7360 µM

Input line: For AUAAAAGCGCCAGAACUACAGAAAUGUAGUUGACGAGGAGGAGGUUUAUCGAAUUUUCGGCGGAAGCCUACAAA [U65A C70A] , what is its reported KM?
Output line: 128 µM

Input line: For AUAAAAGCGCCAUAACUACAGAAAUGUAGUUGACGAGGAGGAGGUUUAUCGAAUUUUCGGCGGGUGCCUCCAAA [G13U A64G] , what is its reported KM?
Output line: 4210 µM

Input line: For AUAAAAGCGCCAGAACUACAGAAAUGUAGUUGACGAGGAGGAGGUUUAUCGACUUUUCGGCGGGUGCCUCCAAA [A53C A64G] , what is its reported KM?
Output line: 1710 µM

Input line: For AUAAAAGCGCCAGAACUACAGAAAUGUAGUUGACGAGGAGGAGGAUUAUCGAAUUUUCGGCGGCUGCCUCCAAA [U45A A64C] , what is its reported KM?
Output line: 2520 µM

Input line: For AUAAAAGCGCCAGAACUACAGAAAUGUAGUUGUCGAGGCGGAGGUUUAUCGAAUUUUCGGCGGAUGCCUCCAAA [A33U A39C] , what is its reported KM?
Output line: 3650 µM

Input line: For AUAAAAGCGCCAGAACUACAGAAAUGUAGUUGACGAGGAGGAGGUUUAUCGAAGUAUCGGCGUAUGCCUCCAAA [U54G U56A G63U] , what is its reported KM?
Output line: 1560 µM

Input line: For AUAAAAGCGCCAGUACUACAGAAAUGUAGUUGACGAGGAGGAGGUUUAUCGAAUCUUCGGCGGAUGCCUCCAAA [A14U U55C] , what is its reported KM?
Output line: 1760 µM

Input line: For AUAAAAGCGCCAGAACUACAGAAAUGUAGUUGACGAGGAGGAGGUUUAUCGAAAUUUCGGCGGAUGCCUCCAAA [U54A] , what is its reported KM?
Output line: 2360 µM
